The reported measurements were obtained from patent US20110230485A1.

# Assayed System: wild-type nAChR α7 receptors (Homo sapiens)
# Assay Summary: Positive modulation of nAChR α7 receptors expressed in Xenopus laevis oocytes, two-electrode voltage clamp
# Condition Parameters: positive modulation of current induced by 100 μM acetylcholine; oocytes clamped at −60 mV; test compound 0.01-31.6 μM applied 30 s before and during acetylcholine
Quantity Kind: pEC50
Friendly reminder that pEC50 comes from taking -log10 of the concentration in mol/L.

Cc1ccc(Nc2nc(C)nc(-c3ccc(C(F)(F)F)cc3F)c2N)cc1 :: 5.47
Nc1c(Nc2ccc3[nH]ncc3c2)ncnc1-c1ccc(C(F)(F)F)cc1F :: 5.00
Nc1c(Nc2ccc3[nH]ccc3c2)ncnc1-c1ccc(C(F)(F)F)cc1F :: 6.62
COc1ccc(Oc2ncnc(-c3ccc(C(F)(F)F)cc3F)c2N)cc1 :: 5.18
Nc1c(Nc2ccc(S(N)(=O)=O)cc2)ncnc1-c1ccc(C(F)(F)F)cc1F :: 5.17

Provide pEC50 value for the following molecule: Cc1nc(Nc2ccc3c(c2)OCCO3)c(N)c(-c2ccc(C(F)(F)F)cc2F)n1
5.03

Provide pEC50 value for the following molecule: Nc1c(Oc2ccc(O)cc2)ncnc1-c1ccc(C(F)(F)F)cc1F
4.82

Provide pEC50 value for the following molecule: COc1ccc(Nc2ncnc(-c3ccc(C(F)(F)F)cc3F)c2[N+](=O)[O-])cn1
5.18

----------
# Assayed System: wild-type nAChR α7 receptors (Homo sapiens, UniProt P36544)
# Construct: expressed in transfected cells; host or cells: Xenopus laevis oocytes
# Sequence (P36544 23-502): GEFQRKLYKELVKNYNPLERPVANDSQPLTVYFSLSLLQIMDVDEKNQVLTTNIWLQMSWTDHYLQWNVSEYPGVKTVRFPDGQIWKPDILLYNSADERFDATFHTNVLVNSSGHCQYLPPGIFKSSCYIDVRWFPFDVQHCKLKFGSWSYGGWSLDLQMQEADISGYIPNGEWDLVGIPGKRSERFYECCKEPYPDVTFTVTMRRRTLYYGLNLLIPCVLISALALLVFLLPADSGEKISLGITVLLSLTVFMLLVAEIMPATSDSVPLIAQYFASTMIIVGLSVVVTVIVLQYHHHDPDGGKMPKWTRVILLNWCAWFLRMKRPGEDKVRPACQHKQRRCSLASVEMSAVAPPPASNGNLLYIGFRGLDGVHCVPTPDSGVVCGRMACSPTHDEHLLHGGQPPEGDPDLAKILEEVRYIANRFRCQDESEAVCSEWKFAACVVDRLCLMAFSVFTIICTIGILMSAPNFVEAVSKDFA
# Assay Summary: Positive modulation of nAChR α7 receptors expressed in Xenopus laevis oocytes, two-electrode voltage clamp
# Assay type: cell-based
# Condition Parameters: maximal modulation of the control response to 100 μM acetylcholine, (test-control)/control×100%; oocytes clamped at −60 mV; read-out: Imax
// reported Emax per item
Form entry: enter the amount, then its unit.

Example entries and their recorded answers appear below.
Nc1c(Nc2ccc3[nH]ccc3c2)ncnc1-c1ccc(C(F)(F)F)cc1F [Compound 1.10] :: 631%
COc1ccc(Nc2ncnc(-c3ccc(C(F)(F)F)cc3F)c2[N+](=O)[O-])cc1 [Compound 1.1] :: 2%
Nc1c(Nc2ccc(OCC3CC3)cc2)ncnc1-c1ccc(C(F)(F)F)cc1F [Compound 1.14] :: 3%
COc1ccc(Nc2nc(C)nc(-c3ccc(C(F)(F)F)cc3F)c2N)c(OC)c1 [Compound 1.33] :: 11%
COc1ccc(Nc2nc(C)nc(-c3ccc(C(F)(F)F)cc3F)c2N)cc1 [Compound 1.16] :: 495%

Provide Emax value for the following compound: O=[N+]([O-])c1c(Nc2ccc3[nH]ccc3c2)ncnc1-c1ccc(C(F)(F)F)cc1F [Compound 1.9]
527%

Provide Emax value for the following compound: COc1ccc(Oc2nc(C)nc(-c3ccc(C(F)(F)F)cc3F)c2N)cc1 [Compound 2.13]
42%

Provide Emax value for the following compound: Nc1c(Nc2ccc(O)nc2)ncnc1-c1ccc(C(F)(F)F)cc1F [Compound 1.11]
22%

----------
// reported Emax per item
# Assayed System: wild-type nAChR α7 receptors (Homo sapiens, UniProt P36544)
# Construct: expressed in transfected cells; host or cells: Xenopus laevis oocytes
# Assay Summary: Positive modulation of nAChR α7 receptors expressed in Xenopus laevis oocytes, two-electrode voltage clamp
# Assay type: cell-based
# Condition Parameters: maximal modulation of the control response to 100 μM acetylcholine, (test-control)/control×100%; oocytes clamped at −60 mV; read-out: Imax
Entry rule: numbers only, all in %.

CSc1cccc(Nc2nc(C)nc(-c3ccc(C(F)(F)F)cc3F)c2N)c1 [Compound 1.32] :: 245
O=[N+]([O-])c1c(Nc2ccc(O)cc2)ncnc1-c1ccc(C(F)(F)F)cc1F [Compound 1.2] :: 391
COc1cccc(Nc2nc(C)nc(-c3ccc(C(F)(F)F)cc3F)c2N)c1 [Compound 1.31] :: 193
Nc1c(Nc2ccc3c(c2)OCO3)ncnc1-c1ccc(C(F)(F)F)cc1F [Compound 1.13] :: 848
COc1ccc(Oc2ncnc(-c3ccc(C(F)(F)F)cc3F)c2[N+](=O)[O-])cc1 [Compound 2.1] :: 19

Next molecule, please.
Provide Emax value for the following molecule: COc1ccc(Nc2ncnc(-c3ccc(C(F)(F)F)cc3F)c2[N+](=O)[O-])cn1 [Compound 1.5]
137
